Origin of values: patent US8084457B2

molecular target: CDK2/CyclinA (Homo sapiens, UniProt P24941); construct: purchased Proqinase; experiment: Kinase assay determining CDK2/CyclinA activity; type: biochemical; details: read-out: CDK2 (activity range)
ASSAY METRIC: IC50

INSERT INTO measurements (molecule, measured) VALUES
  ('COc1cccc(-c2cc(Nc3ccc(NS(=O)(=O)c4ccc(C)cc4)cc3)ncn2)c1', '10 to 250 µM'),
  ('COc1ccccc1-c1cc(Nc2cccc(S(C)(=O)=O)c2)ncn1', '0.001 to 1 µM'),
  ('O=C(Nc1ccc(Nc2cc(-c3ccc(Oc4ccccc4)cc3)ncn2)cc1)[C@@H]1CCCCN1', '1 to 10 µM'),
  ('COc1ccc(Cl)cc1-c1cc(Nc2ccc(NC(=O)c3ccc(N)cc3)cc2)ncn1', '10 to 250 µM'),
  ('Cc1ccc(Nc2cc(-c3cccc(N)c3)ncn2)cc1NS(=O)(=O)c1cccc2cccnc12', '10 to 250 µM');

Which IC50 value belongs to COc1ccccc1-c1cc(Nc2ccc(NC(=O)C(c3ccccc3)N(C)C)cc2)ncn1 (stereo not drawn) ?
1 to 10 µM

Data request, read-out IC50, for Cc1ccc(Nc2cc(-c3ccccc3OC(C)C)ncn2)cc1NS(C)(=O)=O
0.001 to 1 µM

IC50 for NC(=O)c1ccc(Nc2cc(-c3ccccc3OCc3ccccc3)ncn2)cc1 ?
0.001 to 1 µM

Recorded IC50 of CNC(C)(C)C(=O)Nc1ccc(Nc2cc(-c3ccccc3OC)ncn2)cc1 , please.
1 to 10 µM

What does the data say about its IC50? Entry: COc1ccccc1-c1cc(Nc2ccc(C(=O)NC3CCCCC3N)cc2)ncn1 (stereo not drawn)
1 to 10 µM

Requested field: IC50. Item: COc1ccccc1-c1cc(N(C)c2ccc(N)cc2)ncn1
1 to 10 µM

Consider the molecule shown here: Nc1ccc(C(=O)Nc2ccc(Nc3cc(-c4cccc(N)c4)ncn3)cc2)cc1 What is its recorded IC50?
1 to 10 µM

====

Molecular target: CDK9/Cyclin T1 (Homo sapiens, UniProt P50750)
Sequence (P50750 whole entry): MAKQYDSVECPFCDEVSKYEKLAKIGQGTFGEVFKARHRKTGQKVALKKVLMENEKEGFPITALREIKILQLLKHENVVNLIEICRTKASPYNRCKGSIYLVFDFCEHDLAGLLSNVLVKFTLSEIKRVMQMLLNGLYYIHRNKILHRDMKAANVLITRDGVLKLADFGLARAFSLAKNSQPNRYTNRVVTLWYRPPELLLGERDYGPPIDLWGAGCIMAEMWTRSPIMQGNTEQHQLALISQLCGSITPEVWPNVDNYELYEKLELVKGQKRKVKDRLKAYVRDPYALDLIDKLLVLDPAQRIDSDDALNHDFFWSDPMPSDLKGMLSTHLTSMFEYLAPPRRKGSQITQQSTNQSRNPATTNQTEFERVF
Sequence (O60563 whole entry partner): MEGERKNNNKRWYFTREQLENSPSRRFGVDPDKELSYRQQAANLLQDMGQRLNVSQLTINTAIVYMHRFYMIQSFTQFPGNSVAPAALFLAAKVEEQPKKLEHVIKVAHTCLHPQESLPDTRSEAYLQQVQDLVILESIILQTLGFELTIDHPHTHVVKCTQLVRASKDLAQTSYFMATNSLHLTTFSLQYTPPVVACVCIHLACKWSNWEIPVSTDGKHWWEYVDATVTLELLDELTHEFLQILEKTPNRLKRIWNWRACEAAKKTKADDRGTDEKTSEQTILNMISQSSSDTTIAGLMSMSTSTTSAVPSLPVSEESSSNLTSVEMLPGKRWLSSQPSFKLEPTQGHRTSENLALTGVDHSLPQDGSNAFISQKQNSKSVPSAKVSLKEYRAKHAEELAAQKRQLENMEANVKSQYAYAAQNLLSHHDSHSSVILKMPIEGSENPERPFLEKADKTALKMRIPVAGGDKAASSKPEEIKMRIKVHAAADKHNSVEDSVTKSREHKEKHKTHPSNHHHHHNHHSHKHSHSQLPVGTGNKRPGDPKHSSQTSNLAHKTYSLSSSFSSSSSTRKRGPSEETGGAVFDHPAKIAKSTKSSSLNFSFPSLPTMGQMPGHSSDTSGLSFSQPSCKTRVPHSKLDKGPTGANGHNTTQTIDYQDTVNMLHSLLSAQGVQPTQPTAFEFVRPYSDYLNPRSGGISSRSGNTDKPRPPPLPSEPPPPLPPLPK
Assay: Kinase assay using CDK9/Cyclin T1
Settings: read-out: CDK9 (activity range)
Description: Cloning of CDK9 and Cyclin T1: Both cDNA fragments were cloned by PCR into pDONR201 vectors using the gateway recombination system (Invitrogen) according to the manufacturer's recommendations. The fragments were subcloned into a gateway-adapted shuttle vector (pPM7) for production of recombinant adenovirus. All plasmids were verified by restriction digests and sequencing analysis. Expression and Purification of CDK9/Cyclin T1 Proteins: […]
IC50: recorded values

Observe how each entry below is paired with its result.
INSERT INTO assay_data (compound, measured) VALUES
  ('N#Cc1cccc(-c2cc(Nc3ccc(C(=O)NC4CCCCC4N)cc3)ncn2)c1 (stereo not shown)', '1 to 10 µM'),
  ('Cc1ccc(Nc2cc(-c3cccc(NS(C)(=O)=O)c3)ncn2)cc1NS(C)(=O)=O', '1 to 10 µM'),
  ('CC(=O)c1cccc(-c2cc(Nc3ccc(NC(=O)[C@@H]4CCCCN4)cc3)ncn2)c1', '10 to 250 µM');

// switching to the query compound
Give the measured IC50 of COc1ccccc1-c1cc(Nc2ccc(NC(=O)C(C)(C)C)cc2C)ncn1 .
10 to 250 µM

====

biological target: CDK4 (Homo sapiens); experiment: Kinase assay, CDK4 activity range (Table 2); type: biochemical
Sequence (P11802 whole entry, species assumed): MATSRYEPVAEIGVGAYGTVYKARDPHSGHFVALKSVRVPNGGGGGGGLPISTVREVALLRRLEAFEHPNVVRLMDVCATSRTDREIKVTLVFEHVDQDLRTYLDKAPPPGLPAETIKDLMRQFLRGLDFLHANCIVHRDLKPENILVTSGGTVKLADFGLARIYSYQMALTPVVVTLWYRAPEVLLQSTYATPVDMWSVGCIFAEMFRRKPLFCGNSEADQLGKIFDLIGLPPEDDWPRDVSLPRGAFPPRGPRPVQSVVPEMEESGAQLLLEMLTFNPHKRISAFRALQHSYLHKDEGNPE
Sequence (P24385 whole entry partner, species assumed): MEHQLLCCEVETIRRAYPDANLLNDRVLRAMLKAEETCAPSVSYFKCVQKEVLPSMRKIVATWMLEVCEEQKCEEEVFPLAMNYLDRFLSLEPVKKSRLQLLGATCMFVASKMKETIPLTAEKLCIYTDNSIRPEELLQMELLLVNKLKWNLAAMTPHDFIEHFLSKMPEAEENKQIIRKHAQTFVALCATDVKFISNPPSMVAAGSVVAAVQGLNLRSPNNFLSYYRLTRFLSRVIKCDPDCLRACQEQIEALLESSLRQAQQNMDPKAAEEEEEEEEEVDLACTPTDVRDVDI
Listed below: IC50 values for each entry.

Take a look at these entries with their results.
INSERT INTO results (molecule, assay_metric, measured) VALUES
  ('Cc1ccc(Nc2cc(-c3cccc(O)c3)ncn2)cc1NS(C)(=O)=O', 'IC50', '10000 to 250000 nM'),
  ('COc1ccccc1-c1cc(Nc2ccc(NC(=O)C3CCCN(C)C3)cc2)ncn1 (stereo not drawn)', 'IC50', '1000 to 10000 nM'),
  ('COc1ccccc1-c1cc(Nc2ccc(NC(C)=O)cc2)ncn1', 'IC50', '1000 to 10000 nM'),
  ('COc1ccccc1-c1cc(Nc2cccc(N)c2)ncn1', 'IC50', '1000 to 10000 nM'),
  ('COc1ccccc1-c1cc(Nc2ccc(NC(=O)[C@@H](N)C(C)C)cc2)ncn1', 'IC50', '1000 to 10000 nM'),
  ('COc1ccccc1-c1cc(Nc2ccc(NC(=O)CN(C)C)cc2)ncn1', 'IC50', '1000 to 10000 nM'),
  ('Cc1ccc(Nc2cc(-c3cccc(C(F)(F)F)c3)ncn2)cc1NS(C)(=O)=O', 'IC50', '10000 to 250000 nM'),
  ('COc1ccccc1-c1cc(Nc2ccc(NC(=O)[C@@H](N)c3ccccc3)cc2)ncn1', 'IC50', '1000 to 10000 nM'),
  ('COc1ccc(-c2cc(Nc3ccc(NC(=O)[C@@H]4CCCCN4)cc3)ncn2)c(OC)c1', 'IC50', '1 to 1000 nM'),
  ('CSc1ccccc1-c1cc(Nc2ccc(NC(=O)[C@@H]3CCCCN3)cc2)ncn1', 'IC50', '1 to 1000 nM');

For CDK4 (Homo sapiens), provide IC50 of COc1ccccc1-c1cc(Nc2ccc(N3CCCC3=O)cc2)ncn1 please.
1 to 1000 nM

What measured IC50 is associated with COc1ccccc1-c1cc(Nc2ccc(NC(=O)CCN)cc2)ncn1 on CDK4 (Homo sapiens)?
1 to 1000 nM

Could you share what IC50 was measured for COc1ccccc1-c1cc(Nc2ccc(C(=O)N[C@@H]3CCCC[C@H]3N)cc2)ncn1 (racemic) , tested on CDK4 (Homo sapiens)?
1000 to 10000 nM

Enter reported IC50 observed with CDK4 (Homo sapiens) for NC(=O)c1ccc(Nc2cc(-c3ccccc3OCc3ccccc3)ncn2)cc1
1000 to 10000 nM

Enter reported IC50 observed with CDK4 (Homo sapiens) for COc1ccccc1-c1cc(Nc2ccc(NC(=O)[C@H]3CCCN3)cc2)ncn1
1000 to 10000 nM
